# target under test: T1, human CD45 (human, UniProt P08575 26-1306)
# T1 sequence: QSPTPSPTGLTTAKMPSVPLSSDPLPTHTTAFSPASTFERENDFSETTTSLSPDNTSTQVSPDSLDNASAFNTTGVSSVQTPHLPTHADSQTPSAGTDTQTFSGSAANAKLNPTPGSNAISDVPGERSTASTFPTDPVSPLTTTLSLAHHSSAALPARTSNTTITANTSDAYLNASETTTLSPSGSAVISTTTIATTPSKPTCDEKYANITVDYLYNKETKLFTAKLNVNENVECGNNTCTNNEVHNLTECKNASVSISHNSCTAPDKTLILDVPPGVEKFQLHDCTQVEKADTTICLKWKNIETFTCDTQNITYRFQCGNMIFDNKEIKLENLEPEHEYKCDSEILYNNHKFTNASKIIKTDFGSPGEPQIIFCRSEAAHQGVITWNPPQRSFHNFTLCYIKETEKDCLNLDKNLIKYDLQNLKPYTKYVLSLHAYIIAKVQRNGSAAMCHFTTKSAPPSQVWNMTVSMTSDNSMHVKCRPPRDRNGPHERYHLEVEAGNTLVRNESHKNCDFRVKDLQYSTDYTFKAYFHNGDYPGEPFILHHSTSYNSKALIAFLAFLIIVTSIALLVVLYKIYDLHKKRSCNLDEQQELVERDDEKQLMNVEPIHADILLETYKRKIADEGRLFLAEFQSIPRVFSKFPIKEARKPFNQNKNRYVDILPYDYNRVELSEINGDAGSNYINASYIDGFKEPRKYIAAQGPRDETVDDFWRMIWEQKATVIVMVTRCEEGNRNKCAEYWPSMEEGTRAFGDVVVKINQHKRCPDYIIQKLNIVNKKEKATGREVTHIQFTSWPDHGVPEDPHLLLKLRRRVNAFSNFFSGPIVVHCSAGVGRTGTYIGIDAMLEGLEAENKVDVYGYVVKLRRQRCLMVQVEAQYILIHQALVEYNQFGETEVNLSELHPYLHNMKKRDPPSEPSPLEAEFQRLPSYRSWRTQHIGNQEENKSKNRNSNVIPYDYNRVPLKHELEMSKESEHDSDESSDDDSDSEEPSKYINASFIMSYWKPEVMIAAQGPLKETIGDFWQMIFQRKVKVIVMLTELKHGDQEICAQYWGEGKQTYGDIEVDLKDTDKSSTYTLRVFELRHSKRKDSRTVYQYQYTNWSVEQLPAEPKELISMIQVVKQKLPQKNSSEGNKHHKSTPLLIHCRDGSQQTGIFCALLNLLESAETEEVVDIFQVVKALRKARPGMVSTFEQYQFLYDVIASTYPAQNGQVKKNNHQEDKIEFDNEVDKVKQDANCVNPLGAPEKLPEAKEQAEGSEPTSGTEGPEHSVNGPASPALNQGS
# protocol notes: cell-based or functional assay
recorded metric: Average EC50, clonogenic assay, primary human CD34+ cells (pM)
Write the answer as a number in pM, unit excluded.

Incoming: Given YTH24.5-B4 (antibody, V domains shown, PBD drug-linker B4 (non-cleavable) conjugated; sites and DAR not stated) VH: QVNLLQSGAALVKPGASVKLSCKASSYTFTDYYIHWVKQSHGKTLEWIGYINPKSGFTNYNEKFRRKATLTVDKSTNTAYMDISRLTSEDSATYYCTRRTGVIPMDAWGQGASVTVSS VL: DVVMTQTPVSLSVSLGGQVSISCRSSQSFVSSDGNTYLNWYLQKPGQSPQLLIYKVSNRLSGVPDRFSGSGSGTDFTLKISRVEHDDLGVYYCGQASKIPLTFGSGTKLEIKR , state its recorded Average EC50, clonogenic assay, primary human CD34+ cells.
Outgoing: 4.92
